experimental target: Arginase-2, mitochondrial (Homo sapiens)
Sequence (whole entry): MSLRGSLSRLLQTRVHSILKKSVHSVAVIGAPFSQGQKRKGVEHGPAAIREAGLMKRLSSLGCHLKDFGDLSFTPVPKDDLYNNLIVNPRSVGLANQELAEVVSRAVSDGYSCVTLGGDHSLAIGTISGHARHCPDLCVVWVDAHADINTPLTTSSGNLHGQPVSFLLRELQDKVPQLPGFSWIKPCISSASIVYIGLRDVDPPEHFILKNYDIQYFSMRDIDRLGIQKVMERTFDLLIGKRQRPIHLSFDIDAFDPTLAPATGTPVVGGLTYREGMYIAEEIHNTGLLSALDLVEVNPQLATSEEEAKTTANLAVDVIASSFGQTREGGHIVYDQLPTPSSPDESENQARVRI
procedure details: in vitro enzyme assay to detect the production of urea directly proportional to the activity of Arginase II; note: in the data most compounds retested in dose-response had high values
Format: functional
Set-up: scale not given: direction of the effect not stated beside the values
condition context: 33.3 µM
property label: Percent Effect

Ask: Answer with the recorded Percent Effect for the compound listed here: CC(C)n1ccnc1C1CCN(Cc2ccc(Cl)c(F)c2)CC1
Result: -4.14%

Ask: Output measured Percent Effect for this item: CCOc1ncccc1C(=O)N1CCCC1c1c(C)nn(C)c1OC (configuration not stated)
Result: -2.25%

Ask: Fill in reported Percent Effect for this entry: Cn1ccc(CN2CCCC2c2ccc3c(c2)OCCCO3)cc1=O (configuration not stated)
Result: 6.56%

Ask: Please indicate Percent Effect recorded for Cc1noc(C)c1CN1CCN(CC2CC2)c2ncccc2C1
Result: 3.5%

Ask: Retrieve Percent Effect measured for COc1cccc2c1ccn2CC(=O)N[C@@H](CCSC)C(=O)O and print it.
Result: -7.57%

Ask: Please indicate Percent Effect recorded for Cc1ccc(CNCCOc2ccc(S(C)(=O)=O)cc2)cc1
Result: -0.798%

Ask: Provide only the value of recorded Percent Effect for CNc1cc(CCNC(=O)c2cccnc2)nc(-c2ccncc2)n1
Result: 2.09%

Ask: Please give the documented Percent Effect of CC(Cn1cccn1)NC(=O)N1CCN(Cc2cccnc2)CC1 (configuration not stated)
Result: -1.02%

Ask: For the compound Cn1cnc2c1CCN(Cc1ccc(C(=O)N3CCCC3)cc1)C2 , report Percent Effect.
Result: 4.51%

Ask: // Input: Cc1nn(CC(=O)N2CCN(c3ccccc3F)CC2)c(C)c1Cl . Output its Percent Effect only.
Result: -24.8%

Ask: Give the reported value of Percent Effect for this record: Cc1nc(C2CCCN(C(=O)c3ccco3)C2)no1 (configuration not stated)
Result: -0.645%

Ask: Give reported Percent Effect value for c1ccc2c(N3CCCCC3Cn3cncn3)ncnc2c1 (configuration not stated)
Result: 3.12%

---

experimental target: AMP-activated protein kinase, AMPK (Homo sapiens) (UniProt P54646+O43741+P54619+Q9UGJ0+Q9Y478+Q13131+Q9UGI9)
procedure details: AMP-dependent Kinase enzyme assay. An in vitro enzyme assay that detects ADP turnover that is directly proportional to AMPK activity. This uses naive AMPK that is activated during the assay with MK-8722
Format: functional
Set-up: scale not given: direction of the effect not stated beside the values
condition context: 30 µM
I'd appreciate it if you could supply Percent Effect values for the items below.
// return numeric value only (unit: %, not printed)

Ask: Provide measured Percent Effect value, entry: CCc1nc(C)c(C(=O)NCCNc2cnccn2)s1
Result: -0.0117

Ask: Read the entry Cc1nc(C)n(CC2CCCN2CCOc2ccc(C#N)cc2)n1 (configuration not stated) and write its reported Percent Effect.
Result: -2.42

Ask: Tell me measured Percent Effect for CC(=O)NC1CCCN(C(=O)NCc2ccc(-c3ccn[nH]3)cc2)C1 (configuration not stated) please.
Result: 2.99

Ask: Please supply the value of reported Percent Effect for the item OC(CN1CCC(c2ccn[nH]2)CC1)c1cccc(F)c1 (configuration not stated)
Result: 4.09

Ask: # return recorded Percent Effect for entry CN1CCCC(Cc2cncc(C(=O)NCC3CC3)c2)C1 (configuration not stated)
Result: 8.98

Ask: Given CC(C)Oc1ncccc1CNC(=O)C1CCCN(C(=O)C2CC2)C1 (configuration not stated) , respond with its Percent Effect.
Result: -7.89

Ask: Fill in Percent Effect for record CCN1CC(C(=O)NC(C)(C)CC(C)(C)C)CC1=O (configuration not stated)
Result: -0.778

Ask: Return reported Percent Effect. Input compound: CN(C)CCO[C@@H]1CC[C@H]2[C@H]1OCCN2C(=O)CCc1ccccc1
Result: -7.4

Ask: Could you please provide reported Percent Effect for CCc1nc(CC(=O)NCC(Cc2ccc(F)cc2)C(N)=O)cs1 (configuration not stated) ? Thanks!
Result: -6.2

Ask: Quick one: give measured Percent Effect for CN(C(=O)NCc1ccncc1)C1CCN(c2ccccc2)C1=O (configuration not stated)
Result: -3.87

Ask: Please report Percent Effect for the following compound: N#Cc1ccnc(N2CCN(C(=O)Cc3ccc4c(c3)CCO4)CC2)c1
Result: -3.75

Ask: Specify measured Percent Effect for OCCn1cc(CN2CCN(CCOc3ccccc3)CC2)cn1 .
Result: -1.96
